# Protocol Notes: Shake-flask n-octanol/buffer distribution coefficient (D7.4)
# Type: physicochemical
# Condition Notes: n-octanol/buffered aqueous solution, pH 7.4, n-octanol/10 mM HEPES pH 7.4, 100 mM KCl, 25 °C; read-out: logD7.4
# Method: The distribution coefficient values (D7.4) of the compounds were determined by the traditional shake-flask method in n-octanol/buffered aqueous solution at pH 7.40 (10 mM HEPES buffer, in the absence or in the presence of 0.10 M KCl) at 25.0 ± 0.2 °C. […] After separation, UV-vis spectra of the compounds in the n-octanol phase were recorded and compared to the spectra of the n-octanol stock solution. […]
Quantity Measured: logD at 4 h
Answer using only a numeral; do not append any unit.

Provide one value: measured logD at 4 h of Oc1cccc2ccc(/C=N/Nc3nc4ccccc4s3)nc12
3

----------
# Protocol Notes: UV-vis spectrophotometric titration for proton dissociation constants
# Type: physicochemical
# Condition Notes: 60% (v/v) DMSO/H2O solvent mixture, 60% (v/v) DMSO/H2O, I = 0.10 M (KCl), 25 °C; read-out: pKa3
Quantity Measured: pKa
// keep it numeric: no unit symbol after the value

For the compound Oc1cccc2ccc(/C=N/Nc3nc4ccccc4s3)nc12 , give its reported pKa.
9.09

Now take the following compound into account.
Given the compound NNc1nc2ccccc2s1 [2-Hydrazinobenzothiazole, 2-hydrazinobenzothiazole, reference compound] , write its reported pKa.
10.3

----------
# Protocol Notes: UV-vis spectrophotometric titration for proton dissociation constants
# Assay type: physicochemical
# Condition Notes: 60% (v/v) DMSO/H2O solvent mixture, 60% (v/v) DMSO/H2O, I = 0.10 M (KCl), 25 °C; read-out: pKa4
Reported pKa values follow for various compounds
Reply with the value as a number alone.

Answer with the recorded pKa for the compound listed here: NNc1nc2ccccc2s1 [2-Hydrazinobenzothiazole, 2-hydrazinobenzothiazole, reference compound]
12.9

Now for the compound whose pKa we want.
Consider the compound Oc1cccc2ccc(/C=N/Nc3nc4ccccc4s3)nc12 and give its recorded pKa.
13

----------
# Protocol Notes: Shake-flask n-octanol/buffer distribution coefficient (D7.4)
# Type: physicochemical
# Condition Notes: n-octanol/buffered aqueous solution, pH 7.4, n-octanol/10 mM HEPES pH 7.4, 0 mM KCl, 25 °C; read-out: logD7.4
Quantity Measured: logD at 4 h
Kindly provide the number alone.

Answer with reported logD at 4 h of Oc1cccc2ccc(/C=N/Nc3nc4ccccc4s3)nc12
2.8
